Assign pKd to each entry below.
- target.under.test: T1, TrkA (on HeLa-TrkA transfectants) (UniProt P04629 33-796)
- T1 construct: TrkA receptor expressed on transfected HeLa cells; also called HeLa+A; source: HeLa, transfected (HeLa-TrkA), on live cells
- protocol.summary: cell-surface fluorescence binding on live cells (plate reader); serial dilution of the intrinsically fluorescent compound in serum-free media on adherent Trk-transfected cells, 2.5 h, washed with DPBS, dissolved in 1% SDS, ex 540/25 nm, em 620/40 nm; fluorescence of the Trk-negative parent cells subtracted; one site - specific binding fit
- stated.conditions: one partner purified
Bridges are numbered along the chain shown (N, C = ends). Where no end group is shown, it is not given here. sulfonated dichloro‑BODIPY dye = Sulfonated dichloro-BODIPY dye that cyclises the two flanking Cys through two SNAr reactions; sulfonated dichloro‑BODIPY = sulfonated dichloro-BODIPY dye attached to the two flanking Cys by SNAr reactions
Just the number, please; pKd means minus log10 of the concentration in mol/L.

(Q) I would be grateful if you could share the reported pKd for CTQNSC (linker 1-6 via sulfonated dichloro‑BODIPY dye, flanking Cys of the CX1X2X3X4C-peptide; also called NT-3 loop (ii) mimic; source: synthetic peptide (Fmoc SPPS), cyclised onto BODIPY, preparative HPLC) [cyclo-organopeptide 5c(ii)] .
(A) 7.04

(Q) Can you look up the measured pKd of CDEKQC (linker 1-6 via sulfonated dichloro‑BODIPY) [cyclo-organopeptide 5a(iii)m] for me?
(A) 6.92
